Tested on: 266295-075-R-J1-PDC spheroid viability
Assay: Anticancer human tumor 266295-075-R-J1-PDC patient-derived head and neck squamous carcinoma cell line growth inhibition [POLQ]
Details: second compound 0.0316 µM; first compound 0.316 µM; active compounds read low; spheroids with HUVEC and MSC
# label = Met if viability, T/C < 90% else Not met

{"columns": ["Molecule", "Class assignment"],
 "data": [
  ["O=C(c1cc(Cc2n[nH]c(=O)c3ccccc23)ccc1F)N1CCN(C(=O)C2CC2)CC1 + COC1C(OC(N)=O)C(O)C(Oc2ccc3c(O)c(NC(=O)c4ccc(O)c(CC=C(C)C)c4)c(=O)oc3c2C)OC1(C)C", "Met"],
  ["CNCc1ccc(-c2[nH]c3cc(F)cc4c3c2CCNC4=O)cc1 + COC1C(OC(N)=O)C(O)C(Oc2ccc3c(O)c(NC(=O)c4ccc(O)c(CC=C(C)C)c4)c(=O)oc3c2C)OC1(C)C", "Met"],
  ["O=C(Nc1ccc(O)c(NS(=O)(=O)c2ccc(F)cc2)c1)c1ccc(-c2ccccc2)cc1 + Cc1cccc(N(C)C(=O)C2C(O)CCN2c2nc(C)cc(C(F)(F)F)c2C#N)c1", "Not met"],
  ["CCc1cc2c(N3CCc4c(cc(Cn5ccnc5)cc4-c4cn(C)nc4C(F)(F)F)C3=O)cc(C)nc2c(OC)n1 + Cc1cccc(N(C)C(=O)C2C(O)CCN2c2nc(C)cc(C(F)(F)F)c2C#N)c1", "Met"]
]}

Now take the following molecule into account.
Strictly below 90% in viability, T/C? COc1cc2cc(C(=O)CCC(=O)O)sc2cc1OC + Nc1ccc(C#CCN(C(=O)Cc2ncc(C(F)(F)F)cc2C(F)(F)F)c2ccc(F)cc2)nn1
Met

---

Test system: 266295-075-R-J1-PDC spheroid viability
Assay: Anticancer human tumor 266295-075-R-J1-PDC cell line growth inhibition [POLQ];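 further: spheroids exposed to compounds for seven days before readout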
Settings: second compound 0.316 µM; first compound 1 µM; active compounds read low; spheroids with HUVEC and MSC
Reported viability, T/C values for the following compounds.
Please reply with the bare figure in % and do not write the unit itself.

{"columns": ["Compound", "Measurement unit", "viability, T/C"],
 "data": [
  ["C#Cc1c(F)ccc2cc(O)cc(-c3ncc4c(N5CC6CCC(C5)N6)nc(OCC56CCCN5CC(F)C6)nc4c3F)c12 (stereo not given) + COC1C(OC(N)=O)C(O)C(Oc2ccc3c(O)c(NC(=O)c4ccc(O)c(CC=C(C)C)c4)c(=O)oc3c2C)OC1(C)C", "%", 68],
  ["COc1cc(C2c3cc4c(cc3C(OC3OC5COC(C)OC5C(O)C3O)C3COC(=O)C23)OCO4)cc(OC)c1O (stereo not given) + Nc1ccc(C#CCN(C(=O)Cc2ncc(C(F)(F)F)cc2C(F)(F)F)c2ccc(F)cc2)nn1", "%", 90.7],
  ["COc1cc2cc(C(=O)CCC(=O)O)sc2cc1OC + Cc1cccc(N(C)C(=O)C2C(O)CCN2c2nc(C)cc(C(F)(F)F)c2C#N)c1", "%", 114],
  ["CNCc1ccc(-c2[nH]c3cc(F)cc4c3c2CCNC4=O)cc1 + Cc1cccc(N(C)C(=O)C2C(O)CCN2c2nc(C)cc(C(F)(F)F)c2C#N)c1", "%", 99.1]
]}

The recorded viability, T/C with 266295-075-R-J1-PDC spheroid viability for COc1cccc2c1C(=O)c1c(O)c3c(c(O)c1C2=O)CC(O)(C(=O)CO)CC3OC1CC(N)C(O)C(C)O1 (stereo not given) + Nc1ccc(C#CCN(C(=O)Cc2ncc(C(F)(F)F)cc2C(F)(F)F)c2ccc(F)cc2)nn1 was 96.6

---

Reported viability, T/C values for the following compounds.
Tested on: 266295-075-R-J1-PDC spheroid viability
Assay: Anticancer human tumor 266295-075-R-J1-PDC cell line growth inhibition [POLQ];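 further: spheroids exposed to compounds for seven days before readout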
Conditions: second compound 10 µM; first compound 0.00316 µM; active compounds read low; spheroids with HUVEC and MSC

These recorded examples may help you get a feel for the data.
{"columns": ["Compound", "Test result"],
 "data": [
  ["CC[C@@]1(O)C(=O)OCc2c1cc1n(c2=O)Cc2cc3c(CN(C)C)c(O)ccc3nc2-1 + Nc1ccc(C#CCN(C(=O)Cc2ncc(C(F)(F)F)cc2C(F)(F)F)c2ccc(F)cc2)nn1", "119%"],
  ["CC[C@@]1(O)C(=O)OCc2c1cc1n(c2=O)Cc2cc3c(CN(C)C)c(O)ccc3nc2-1 + Cc1cccc(N(C)C(=O)C2C(O)CCN2c2nc(C)cc(C(F)(F)F)c2C#N)c1", "93.3%"]
]}

Entry COc1cccc(OCCCN)c1-c1cc(Nc2cnc(C#N)cn2)n[nH]1 + Cc1cccc(N(C)C(=O)C2C(O)CCN2c2nc(C)cc(C(F)(F)F)c2C#N)c1 ; viability, T/C = 107%

Entry Cn1ncnc1[C@H]1c2n[nH]c(=O)c3cc(F)cc(c23)N[C@@H]1c1ccc(F)cc1 + COC1C(OC(N)=O)C(O)C(Oc2ccc3c(O)c(NC(=O)c4ccc(O)c(CC=C(C)C)c4)c(=O)oc3c2C)OC1(C)C ; viability, T/C = 86.9%

Entry Cn1ncnc1[C@H]1c2n[nH]c(=O)c3cc(F)cc(c23)N[C@@H]1c1ccc(F)cc1 + Cc1cccc(N(C)C(=O)C2C(O)CCN2c2nc(C)cc(C(F)(F)F)c2C#N)c1 ; viability, T/C = 101%

Entry CC[C@@]1(O)C(=O)OCc2c1cc1n(c2=O)Cc2cc3c(CN(C)C)c(O)ccc3nc2-1 + COC1C(OC(N)=O)C(O)C(Oc2ccc3c(O)c(NC(=O)c4ccc(O)c(CC=C(C)C)c4)c(=O)oc3c2C)OC1(C)C ; viability, T/C = 97.8%

Entry CCc1c2c(nc3ccc(O)cc13)-c1cc3c(c(=O)n1C2)COC(=O)[C@]3(O)CC + Cc1cccc(N(C)C(=O)C2C(O)CCN2c2nc(C)cc(C(F)(F)F)c2C#N)c1 ; viability, T/C = 92.8%

Entry Cn1ncnc1[C@H]1c2n[nH]c(=O)c3cc(F)cc(c23)N[C@@H]1c1ccc(F)cc1 + Nc1ccc(C#CCN(C(=O)Cc2ncc(C(F)(F)F)cc2C(F)(F)F)c2ccc(F)cc2)nn1 ; viability, T/C = 110%

Entry COc1cccc(OCCCN)c1-c1cc(Nc2cnc(C#N)cn2)n[nH]1 + COC1C(OC(N)=O)C(O)C(Oc2ccc3c(O)c(NC(=O)c4ccc(O)c(CC=C(C)C)c4)c(=O)oc3c2C)OC1(C)C ; viability, T/C = 87.6%

Entry C=CCn1c(=O)c2cnc(Nc3ccc(N4CCN(C)CC4)cc3)nc2n1-c1cccc(C(C)(C)O)n1 + COC1C(OC(N)=O)C(O)C(Oc2ccc3c(O)c(NC(=O)c4ccc(O)c(CC=C(C)C)c4)c(=O)oc3c2C)OC1(C)C ; viability, T/C = 104%

---

Tested on: 266295-075-R-J1-PDC spheroid viability
Assay: Anticancer human tumor 266295-075-R-J1-PDC cell line growth inhibition [POLQ];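 further: spheroids exposed to compounds for seven days before readout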
Conditions: second compound 0.316 µM; first compound 1 µM; active compounds read low; spheroids with HUVEC and MSC
Reported viability, T/C values for the following molecules.
Please reply with the bare figure in % and do not write the unit itself.

These recorded examples may help you get a feel for the data.
{"columns": ["Molecule", "viability, T/C [%]"],
 "data": [
  ["CCc1cc2c(N3CCc4c(cc(Cn5ccnc5)cc4-c4cn(C)nc4C(F)(F)F)C3=O)cc(C)nc2c(OC)n1 + COC1C(OC(N)=O)C(O)C(Oc2ccc3c(O)c(NC(=O)c4ccc(O)c(CC=C(C)C)c4)c(=O)oc3c2C)OC1(C)C", 107],
  ["C=CC(=O)N1CCN(c2nc(=O)n(-c3c(C)ccnc3C(C)C)c3nc(-c4c(O)cccc4F)c(F)cc23)C(C)C1 (stereo not drawn) + Cc1cccc(N(C)C(=O)C2C(O)CCN2c2nc(C)cc(C(F)(F)F)c2C#N)c1", 126]
]}

Now look at this entry.
Entry C=CCn1c(=O)c2cnc(Nc3ccc(N4CCN(C)CC4)cc3)nc2n1-c1cccc(C(C)(C)O)n1 + Cc1cccc(N(C)C(=O)C2C(O)CCN2c2nc(C)cc(C(F)(F)F)c2C#N)c1 ; viability, T/C = 64.7

---

System: 266295-075-R-J1-PDC spheroid viability
Assay: Anticancer human tumor 266295-075-R-J1-PDC cell line growth inhibition [POLQ];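 further: spheroids exposed to compounds for seven days before readout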
Conditions: second compound 0.1 µM; first compound 1 µM; active compounds read low; spheroids with HUVEC and MSC
Measured endpoint: viability, T/C (%)
Please reply with the bare figure in % and do not write the unit itself.

{"columns": ["Compound", "Tgt", "viability, T/C (%)"],
 "data": [
  ["CC(C)n1c(=O)n(C)c2cnc3cc(F)c(-c4ccc(OCCCN5CCCCC5)nc4)cc3c21 + COC1C(OC(N)=O)C(O)C(Oc2ccc3c(O)c(NC(=O)c4ccc(O)c(CC=C(C)C)c4)c(=O)oc3c2C)OC1(C)C", "266295-075-R-J1-PDC spheroid viability", 96.5],
  ["O=c1[nH]cc(F)c(=O)[nH]1 + COC1C(OC(N)=O)C(O)C(Oc2ccc3c(O)c(NC(=O)c4ccc(O)c(CC=C(C)C)c4)c(=O)oc3c2C)OC1(C)C", "266295-075-R-J1-PDC spheroid viability", 93.6]
]}

The recorded viability, T/C with 266295-075-R-J1-PDC spheroid viability for CCc1c2c(nc3ccc(O)cc13)-c1cc3c(c(=O)n1C2)COC(=O)[C@]3(O)CC + Nc1ccc(C#CCN(C(=O)Cc2ncc(C(F)(F)F)cc2C(F)(F)F)c2ccc(F)cc2)nn1 was 75.4

The recorded viability, T/C with 266295-075-R-J1-PDC spheroid viability for CCc1cc2c(N3CCc4c(cc(Cn5ccnc5)cc4-c4cn(C)nc4C(F)(F)F)C3=O)ccnc2c(OC)n1 + COC1C(OC(N)=O)C(O)C(Oc2ccc3c(O)c(NC(=O)c4ccc(O)c(CC=C(C)C)c4)c(=O)oc3c2C)OC1(C)C was 107

The recorded viability, T/C with 266295-075-R-J1-PDC spheroid viability for CCCS(=O)(=O)Nc1ccc(F)c(C(=O)c2c[nH]c3ncc(-c4ccc(Cl)cc4)cc23)c1F + Nc1ccc(C#CCN(C(=O)Cc2ncc(C(F)(F)F)cc2C(F)(F)F)c2ccc(F)cc2)nn1 was 116

The recorded viability, T/C with 266295-075-R-J1-PDC spheroid viability for COc1cc2cc(C(=O)CCC(=O)O)sc2cc1OC + Nc1ccc(C#CCN(C(=O)Cc2ncc(C(F)(F)F)cc2C(F)(F)F)c2ccc(F)cc2)nn1 was 127

The recorded viability, T/C with 266295-075-R-J1-PDC spheroid viability for CCc1cc2c(N3CCc4c(cc(Cn5ccnc5)cc4-c4cn(C)nc4C(F)(F)F)C3=O)cc(C)nc2c(OC)n1 + COC1C(OC(N)=O)C(O)C(Oc2ccc3c(O)c(NC(=O)c4ccc(O)c(CC=C(C)C)c4)c(=O)oc3c2C)OC1(C)C was 121
